Tested on: mouse apolipoprotein B mRNA
Experiment: Inhibition of mouse apolipoprotein B mRNA levels in primary hepatocytes, quantitative real-time PCR
Assay type: cell-based
Conditions: 150 nM
Oligonucleotides are written 5' to 3', each unit as a sugar letter and its base; * is a phosphorothioate linkage, no mark a phosphodiester; rarer units and linkages stand in square brackets, end groups in braces. Plain capitals give the bases only. e = 2'-O-(2-methoxyethyl) (MOE); [5mC] = 5-methylcytosine; d = 2'-deoxy (DNA)
Readings of Percent Inhibition of mouse apolipoprotein B mRNA levels for the listed substances
All answers are understood in %, so give the number only.

# count of solved cases: 3
- 147769 (antisense e[5mC]*eA*eT*eG*e[5mC]*d[5mC]*dT*dG*dG*dA*dA*dG*d[5mC]*d[5mC]*dA*eG*eT*eG*eT*e[5mC]) [compound 147769]: 14
- 147483 (antisense eA*eT*eG*eT*e[5mC]*dA*dA*dT*dG*d[5mC]*d[5mC]*dA*d[5mC]*dA*dT*eG*eT*e[5mC]*e[5mC]*eA) [compound 147483]: 88
- 147776 (antisense eG*e[5mC]*eT*eT*eG*dA*dA*dG*dT*dT*d[5mC]*dA*dT*dT*dG*eA*eG*eA*eA*eT) [compound 147776]: 17

Asked: Please tell me the measured Percent Inhibition of mouse apolipoprotein B mRNA levels for 147764 (antisense eG*eT*e[5mC]*e[5mC]*e[5mC]*dT*dG*dA*dA*dG*dA*dT*dG*dT*d[5mC]*eA*eA*eT*eG*e[5mC]) [compound 147764] ; system: mouse apolipoprotein B mRNA.
Given back: 84
